Experiment: Biodistribution in male ddY mouse pancreas administered intravenously and measured at 60 mins postinjection by gamma counter analysis
Format: ADME, organism-based
Details: in vivo, iv, 1 h
Measured parameter: Drug uptake (% ID/g)
One number for each entry, in % ID/g.

# Chemical smiles, Measured parameter, Scale unit, Data value
measured = [
    ("C[C@H]1CN(c2nc3ccc(F)cc3s2)CCCN1C(=O)c1cc([18F])ccc1-n1nccn1", "Drug uptake", "% ID/g", 0.36),
    ("C[C@H]1CN(c2nc3ccccc3s2)CCCN1C(=O)c1cc([18F])ccc1-n1nccn1", "Drug uptake", "% ID/g", 0.61),
    ("Cc1ccc(-n2nccn2)c(C(=O)N2CCCN(c3nc4ccc([18F])cc4s3)C[C@@H]2C)c1", "Drug uptake", "% ID/g", 0.26),
]

Let's switch to this compound now.
Q: Entry "Cc1ccc(-n2nccn2)c(C(=O)N2CCCN(c3nc4cc([18F])ccc4s3)C[C@@H]2C)c1" has what Drug uptake?
A: 0.53

====

Target: Orexin/Hypocretin receptor type 1 (Homo sapiens)
Sequence (O43613 whole entry): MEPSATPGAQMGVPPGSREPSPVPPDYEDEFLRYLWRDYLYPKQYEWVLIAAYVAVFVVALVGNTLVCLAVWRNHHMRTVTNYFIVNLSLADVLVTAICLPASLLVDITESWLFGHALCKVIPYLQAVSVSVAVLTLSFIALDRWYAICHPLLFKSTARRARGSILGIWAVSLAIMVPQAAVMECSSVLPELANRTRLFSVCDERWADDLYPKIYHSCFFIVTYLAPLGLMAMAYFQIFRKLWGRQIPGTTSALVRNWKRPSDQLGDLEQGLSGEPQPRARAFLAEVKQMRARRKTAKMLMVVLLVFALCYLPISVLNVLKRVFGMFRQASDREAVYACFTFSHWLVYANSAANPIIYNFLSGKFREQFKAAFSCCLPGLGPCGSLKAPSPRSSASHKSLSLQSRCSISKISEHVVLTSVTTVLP
Assay: Displacement of [125I]Orexin A from recombinant human OX1R expressed in CHO-S cells by radioligand competition binding assay
Type: cell-based
Measured parameter: IC50 (nM)
Give bare numbers, in nM.

Q: Entry "COc1ccnc(N2CCC3(CCN(Cc4cn([11CH3])c5ccccc45)C(=O)C3)CC2)n1" has what IC50?
A: 253

====

Experiment: Biodistribution in male ddY mouse spleen administered intravenously and measured at 30 mins postinjection by gamma counter analysis
Assay type: ADME, organism-based
Details: in vivo, iv, 0.5 h
Measured parameter: Drug uptake (% ID/g)
Answers are plain numbers, in % ID/g.

# Chemical smiles, Drug uptake, % ID/g
rows = [
    ("Cc1ccc(-n2nccn2)c(C(=O)N2CCCN(c3nc4ccc([18F])cc4s3)C[C@@H]2C)c1", 0.9),
    ("C[C@H]1CN(c2nc3ccc(F)cc3s2)CCCN1C(=O)c1cc([18F])ccc1-n1nccn1", 0.42),
    ("C[C@H]1CN(c2nc3ccccc3s2)CCCN1C(=O)c1cc([18F])ccc1-n1nccn1", 0.66),
]

Let's switch to this compound now.
Q: Entry "Cc1ccc(-n2nccn2)c(C(=O)N2CCCN(c3nc4cc([18F])ccc4s3)C[C@@H]2C)c1" has what Drug uptake?
A: 1.43

====

Experiment: Biodistribution in male ddY mouse bone administered intravenously and measured at 30 mins postinjection by gamma counter analysis
Type: ADME, organism-based, Bone element
Settings: in vivo, iv, 0.5 h
Task for the reader: assign each of the following compounds its reported Drug uptake.
One number for each entry, in % ID/g.

Here are 3 compounds together with their reported answers.
# Chemical smiles, Measured parameter, Data value
rows = [
    ("Cc1ccc(-n2nccn2)c(C(=O)N2CCCN(c3nc4ccc([18F])cc4s3)C[C@@H]2C)c1", "Drug uptake", 13.2),
    ("Cc1ccc(-n2nccn2)c(C(=O)N2CCCN(c3nc4cc([18F])ccc4s3)C[C@@H]2C)c1", "Drug uptake", 25.8),
    ("C[C@H]1CN(c2nc3ccc(F)cc3s2)CCCN1C(=O)c1cc([18F])ccc1-n1nccn1", "Drug uptake", 0.76),
]

Q: Entry "C[C@H]1CN(c2nc3ccccc3s2)CCCN1C(=O)c1cc([18F])ccc1-n1nccn1" has what Drug uptake?
A: 1.77

These measurements were taken from ChEMBL document CHEMBL6120977.
